// values below are reported IC50 of DPP-IV inhibition (estimated from relative potency)
target: Dipeptidyl peptidase IV (DPP-IV) (UniProt P22411 38-766, limits assumed); experiment: cell-based or functional assay
Sequence (P22411 38-766 limits assumed): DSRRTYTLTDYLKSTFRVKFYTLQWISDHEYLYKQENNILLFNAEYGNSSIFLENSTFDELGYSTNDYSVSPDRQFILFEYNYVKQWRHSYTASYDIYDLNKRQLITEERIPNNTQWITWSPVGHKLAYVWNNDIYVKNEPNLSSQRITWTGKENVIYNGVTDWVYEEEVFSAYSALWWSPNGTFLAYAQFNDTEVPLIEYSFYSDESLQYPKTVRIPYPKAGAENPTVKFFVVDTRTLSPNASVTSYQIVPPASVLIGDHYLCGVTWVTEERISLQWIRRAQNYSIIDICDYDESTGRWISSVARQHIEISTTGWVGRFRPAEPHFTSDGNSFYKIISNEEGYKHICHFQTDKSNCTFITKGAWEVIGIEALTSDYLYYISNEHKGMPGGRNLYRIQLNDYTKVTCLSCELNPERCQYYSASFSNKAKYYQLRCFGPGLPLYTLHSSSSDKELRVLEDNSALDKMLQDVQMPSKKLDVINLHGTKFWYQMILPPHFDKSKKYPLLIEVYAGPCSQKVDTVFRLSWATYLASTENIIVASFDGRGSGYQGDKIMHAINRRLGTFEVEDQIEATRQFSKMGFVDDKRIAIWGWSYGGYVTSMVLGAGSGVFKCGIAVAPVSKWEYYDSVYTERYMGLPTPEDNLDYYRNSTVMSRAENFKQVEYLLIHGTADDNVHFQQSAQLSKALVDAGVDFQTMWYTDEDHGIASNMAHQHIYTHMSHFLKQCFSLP

binder	experimental value
HPIK	~120 µM
LPL	~5 µM
APFPEVF	~120 µM

Req: Can you share its IC50 of DPP-IV inhibition (estimated from relative potency)? I mean this binder: IPI
Resp: ~5 µM
